Test system: T47D
Assay Method Text: NCI tumour cell line growth inhibition, 48 h
Activity calls are given as the source filed them. Rule as the data show it: active = GI50 up to about 1.1 µM and inactive = higher.

Molecule	Study System	GI50
CCCCNC(=S)Nc1nc(C(=O)NNC(=O)c2ccccc2)cs1	T47D	11.5 µM (inactive)
CCOC(=O)c1cc(-c2ccc(Cl)cc2)c([N+](=O)[O-])n1C	T47D	2.05 µM (inactive)
O=[N+]([O-])c1ccc(/C=N/Nc2nc3ccccc3[nH]2)o1	T47D	13.6 µM (inactive)
Cc1cnc(Cl)nc1C(C#N)c1nc2ccccc2s1 (centres undefined)	T47D	34.1 µM (inactive)
Nc1nc(SCc2ccccc2Cl)cc(C(=O)O)n1	T47D	> 100 µM (inactive)
O=[N+]([O-])c1cccc(/N=N/c2c(O)ccc3ccccc23)c1	T47D	> 100 µM (inactive)
CN1CCN(c2ccncc2S(=O)(=O)N2CCN(C)CC2)CC1	T47D	> 100 µM (inactive)
COc1ccc(N2C(=O)[C@H]3CC(C)c4c([nH]c5ccccc45)[C@H]3C2=O)cc1 (some centres undefined)	T47D	4.26 µM (inactive)
O=C1CSC(c2cccc(Oc3ccccc3)c2)N1c1cccc(Cl)c1Cl (centres undefined)	T47D	35.8 µM (inactive)
C=C1C(=O)O[C@H]2/C=C(/C)C3=CC(=O)[C@@](C)(C[C@@H](OC(=O)/C(C)=C\C)C12)O3 (some centres undefined)	T47D	0.811 µM (active)
N#Cc1c(-c2ccc([N+](=O)[O-])cc2)cc(-c2ccc(Nc3ccnc4cc(Cl)ccc34)cc2)nc1N	T47D	4.81 µM (inactive)
COc1ccc(-c2cc(O)c3ccc(C)nc3n2)cc1	T47D	96.8 µM (inactive)
CN(C)N1C(=C(C#N)C#N)C(c2ccccc2)CC1C#N (centres undefined)	T47D	> 100 µM (inactive)
COc1cc(COC(=O)N(CC(=O)O)c2ccccc2)c([N+](=O)[O-])cc1OC	T47D	> 100 µM (inactive)

* * *

Tested on: TK-10
Assay Method Text: NCI tumour cell line growth inhibition, 48 h
The source made the active and inactive calls. No stated cut-off is given here; in the data, active = GI50 up to about 1.1 µM and inactive = higher. Where a SMILES comes first, the peptide text is derived from it. [ ]: non-standard residue; d: D form. The star is where a group is joined. Hyp = O=C(O)[CH]1C[CH](O)CN1; Cbz = O=C(OCc1ccccc1)*
Measured GI50 by item

Molecule	GI50
COC(=O)/C(=N\NC(N)=O)C(C(=O)C(=O)Nc1ccccc1C(=O)OC)c1nc2ccc(C(=O)c3ccccc3)cc2nc1O (stereo not drawn)	> 100 µM (inactive)
CCCCS/C(=C(/C#N)C(N)=O)c1cc2c([nH]1)CCCC2	15.3 µM (inactive)
COc1cc2ccc3c4cc(OC)c(OC)cc4c[n+](C)c3c2cc1O	> 100 µM (inactive)
COc1cc(C2c3cc4c(cc3[C@@H](N(C)c3ccc(N(C)C)cc3)C3COC(=O)C23)OCO4)cc(OC)c1O (stereo partly drawn)	18.5 µM (inactive)
CCN(CC)CCC(=O)c1ccc(Oc2ccccc2)cc1	14.2 µM (inactive)
c1ccc(-c2nnc(-c3nsc4ccccc34)o2)cc1	> 100 µM (inactive)
O=C(Nc1ccccc1)c1cc(S(=O)(=O)N2CCNC2=O)c(S)cc1Cl	> 100 µM (inactive)
COc1ccc(-c2cc(O)c3ccc(C)nc3n2)cc1	> 100 µM (inactive)
Cc1cc(NS(=O)(=O)c2ccc(NC(NC(=O)OC(C)C)(C(F)(F)F)C(F)(F)F)cc2)nc(C)n1	> 100 µM (inactive)
COc1cc(Br)c(CC2=NCCc3cc(OC)c(OC)cc32)cc1OC	5.65 µM (inactive)
c1cc(-c2sc(-c3ccncc3)c(-c3ccncc3)c2-c2ccncc2)ccn1	15.2 µM (inactive)
COc1ccc2c(c1OC)C[C@@H]1c3c(cc4c(c3-2)OCO4)CCN1C	25 µM (inactive)
CC(C)C(=O)/C=C/c1c(Cl)cccc1Cl	12.1 µM (inactive)
N#Cc1c(Cl)c(C=O)c(=O)n2c1[nH]c1ccccc12	> 100 µM (inactive)
COc1ccc(-c2cc(-c3cc(C)ccc3O)nc(O)n2)cc1	40.8 µM (inactive)
Nc1cccc(S(=O)(=O)NCC(=O)O)c1	> 100 µM (inactive)
CC(C)CCC[C@@H](C)C1CCC2[C@@H]3CC=C4C[C@@H](C(=O)NCCN(C)C)CC[C@]4(C)C3CC[C@@]21C (stereo partly drawn)	23.7 µM (inactive)
Cc1cc(O)nc(CNC(=O)Cc2ccccc2)n1	> 100 µM (inactive)
c1cc(-c2ccc(-c3ccc(-c4ccc(-c5cccc6nsnc56)[nH]4)c4nsnc34)[nH]2)c2nsnc2c1	> 100 µM (inactive)
Cc1csc(CP(=O)(OC(C)C)OC(C)C)n1	> 100 µM (inactive)
NC(=O)CNC(=O)C1CC(O)CN1C(=O)C1CCCN1C(=O)OCc1ccccc1 (stereo not drawn) (Cbz-Pro-[Hyp]-Gly-NH2; configuration not given here)	> 100 µM (inactive)
COc1cccc(-c2cc(=O)c3ccc(C)nc3[nH]2)c1	> 100 µM (inactive)
C[C@]12C=CC(=O)C=C1CC[C@H]1[C@@H]3C[C@@H](O)[C@](O)(C(=O)CO)[C@@]3(C)C[C@H](O)[C@@]12F	> 100 µM (inactive)
Cn1c(C(C)(C)OC(=O)Oc2ccccc2)cnc1[N+](=O)[O-]	> 100 µM (inactive)
Cc1cc2nc(N)n[n+]([O-])c2cc1C	> 100 µM (inactive)
COc1ccc(CN(Cc2ccc(OC)cc2)C(=O)CC2(O)C=CCC2)cc1 (stereo not drawn)	> 100 µM (inactive)
CCc1c(O)c2c(c(O)c1C(C)=O)C(=O)c1c(cc(O)c(C(=O)O)c1C(=O)O)C2=O	> 100 µM (inactive)
CCOC(=O)c1ccc(-c2ccc(Cl)cc2)[nH]1	> 10 µM (inactive)
